test: Inhibition of NFAT activation in anti-CD3/anti-CD28-stimulated human Jurkat T cells; format: cell-based
Outcome measure: IC50 (µM)
The answer is to be given in µM; state only the numeric part.

Value of IC50 reported for the molecule CC(C)(C)/C=C(\C#N)C(=O)N1CCC[C@@H](n2nc(-c3ccc(Oc4ccccc4)cc3F)c3c(N)ncnc32)C1 [ATUZABRUTINIB] is 2.1

* * *

test: Drug concentration in plasma of collagen-induced arthritis Lewis rat model 3 mg/kg/day, po measured after 6 hrs post-collection of plasma; format: ADME, organism-based
Outcome measure: concentration at 6 h (ng/mL)
The answer is to be given in ng/mL; state only the numeric part.

Value of concentration at 6 h reported for the compound CC(C)(C)/C=C(\C#N)C(=O)N1CCC[C@@H](n2nc(-c3ccc(Oc4ccccc4)cc3F)c3c(N)ncnc32)C1 is 5.2

* * *

assay: Cmax in rat at 20 mg/kg, po or 2 mg/kg, iv; format: ADME, organism-based; set-up: dose 20 mg/kg, route po; settings: in vivo
Outcome measure: Cmax (ng/mL)
The answer is to be given in ng/mL; state only the numeric part.

Value of Cmax reported for the molecule C[C@@H]1CN(C(C)(C)/C=C(\C#N)C(=O)N2CCC[C@@H](n3nc(-c4ccc(Oc5ccccc5)cc4F)c4c(N)ncnc43)C2)C[C@H](C)N1C is 392

Value of Cmax reported for the molecule CN1CCN(C(C)(C)/C=C(\C#N)C(=O)N2CCC[C@@H](n3nc(-c4ccc(Oc5ccccc5)cc4F)c4c(N)ncnc43)C2)CC1=O is 345

Value of Cmax reported for the molecule COC(=O)N1CCN(C(C)(C)/C=C(\C#N)C(=O)N2CCC[C@@H](n3nc(-c4ccc(Oc5ccccc5)cc4F)c4c(N)ncnc43)C2)CC1 is 142
